ASSAY PROCEDURE: Viability of cultured chondrosarcoma cells (crystal violet nuclear staining, OD590)
Format: cell-based
CONDITION NOTES: human, human chondrosarcoma cell line; crystal violet OD590 (FIG. 5); concentration not given; read-out: decrease in viable cell number
MEASURED METRIC: cytotoxicity at 48 h (%)
Write the number in % without appending the unit.

Looking for the measured cytotoxicity at 48 h of COc1cc2c(cc1O)CCN[C@]21CS[C@@H]2c3c(OC(C)=O)c(C)c4c(c3[C@H](COC1=O)N1[C@@H]2[C@H]2c3c(cc(C)c(OC)c3O)C[C@@H]([C@@H]1O)N2C)OCO4 [ET-743] , can you help?
50
